The reported measurements were obtained from PubChem BioAssay (NCI).

- Tested on: MALME-3M melanoma
- Protocol: NCI tumour cell line growth inhibition, 48 h
Measured metric: TGI

stdin: Quick check: TGI of c1ccc(C2=NNC3c4ccccc4-c4ccccc4N3C2)cc1 (stereo not drawn) ?
stdout: 83.1 µM

stdin: Name the reported TGI value associated with the compound Cc1ccccc1N(CCC#N)C1=NN(C(=O)CC(=O)Nc2ccccc2)C(c2ccccc2)C1 (stereo not drawn)
stdout: > 100 µM

stdin: Recorded TGI of Cc1ccc(S(=O)(=O)NC(=O)NCc2ccc(S(N)(=O)=O)cc2)cc1 , please.
stdout: > 100 µM

stdin: Fill in the blank: the reported TGI of O=C1C2=Cc3ccccc3CCN2c2ccccc21 is ____.
stdout: > 76.7 µM

stdin: Can you share its TGI? I mean this compound: COc1cc(C2=NN(C(C)=O)C(c3ccc(OC(C)=O)cc3OC(C)=O)O2)c(OC(C)=O)c2ccccc12 (stereo not drawn)
stdout: 20.5 µM

stdin: Fill in the blank: the reported TGI of COc1cc(NC(=O)c2cc(O)c(CC=C(C)C)c(O)c2)cc2c1O[C@]1(C)CC[C@@H](O)C(C)(C)[C@H]1C2 is ____.
stdout: 24.3 µM

stdin: Request the reported TGI associated with Cc1cc(C)c(C(=O)CC(=O)c2cccnc2)c(C)c1
stdout: > 100 µM

stdin: Name the reported TGI value associated with the compound Clc1nc(Cl)c2ncn(Cc3cccc(COc4cccc(OCc5cccc(Cn6cnc7c(Cl)nc(Cl)nc76)c5)c4)c3)c2n1
stdout: > 100 µM

###

- Test system: A549 NSCLC
- Protocol: NCI tumour cell line growth inhibition, 48 h
Would you kindly list GI50 for each of these compounds?

stdin: # value lookup — system A549 NSCLC, readout GI50, item CC/C=C\C[C@@H]1C/C=C2/C(=O)C=C[C@H]2C/C=C\CCCC(=O)O1
stdout: 0.526 µM

stdin: GET /values?readout=GI50&system=A549 NSCLC&item= CN(C)c1ccc(N)cc1
stdout: 4.58 µM

stdin: Tell me reported GI50 for Cc1cc(C)c(C(=O)CC(=O)c2cccnc2)c(C)c1 , tested with A549 NSCLC.
stdout: 6.97 µM

stdin: Return GI50 measured with A549 NSCLC given this compound: O=C(CCl)Nc1ccc(Cl)cc1
stdout: 11.2 µM

stdin: # returns recorded GI50 (system: A549 NSCLC) for Clc1nc(Cl)c2ncn(Cc3cccc(COc4cccc(OCc5cccc(Cn6cnc7c(Cl)nc(Cl)nc76)c5)c4)c3)c2n1
stdout: > 100 µM

stdin: GET /values?readout=GI50&system=A549 NSCLC&item= CCOC(=O)Sc1ncnc2nc[nH]c12
stdout: 25.9 µM

###

Kindly state TGI for each of the entries shown.
- System: MOLT-4 leukemia
- Protocol: NCI tumour cell line growth inhibition, 48 h

stdin: Form field: TGI recorded for Cc1nc(N)c(N2CCN(S(N)(=O)=O)CC2)c(=O)[nH]1 with MOLT-4 leukemia (enter value)
stdout: > 100 µM

stdin: Return TGI measured with MOLT-4 leukemia given this compound: COc1cc(C2C3=C(COC3=O)OC(C)(C)Oc3cc4c(cc32)OCO4)cc(OC)c1O (stereo not given)
stdout: > 100 µM

stdin: Give MOLT-4 leukemia TGI for NC1=NN(c2ccccc2)C(=O)C1C(=O)CCC(=O)Nc1cccc(C(F)(F)F)c1 (stereo not given)
stdout: > 100 µM

stdin: Item O=C(N/N=C/c1cccc(O)c1O)c1ccccc1 with MOLT-4 leukemia - TGI?
stdout: > 39.2 µM

stdin: Reported TGI for MOLT-4 leukemia, given O=C1c2ccccc2C(=O)C2NC(CCCCCSSCCCCCC3=NC4C(=O)c5ccccc5C(=O)C4N3)=NC12 (stereo not given) ?
stdout: > 100 µM

###

- Test system: SNB-75 CNS
- Protocol: NCI tumour cell line growth inhibition, 48 h; in the data active = GI50 below about 0.43 µM; inactive = the rest
Log the outcome using a class from 1 (yes) = active, 0 (no) = inactive

stdin: // outcome(item) with item = CCS(=O)(=O)c1ccc(OC)c(Nc2ncc(-c3cccc(OC)c3)o2)c1
stdout: 0 (no)

stdin: In this assay, the call recorded for CCN(CC)CCCC(C)Nc1c(C)cnc2cc(Cl)c(C)cc12 (configuration not stated) was what?
stdout: 0 (no)

stdin: Assay outcome for COc1ccc(C(=O)COc2cccc(/C=C3\COc4ccc5ccccc5c4C3=O)c2)cc1 : what was it?
stdout: 0 (no)

stdin: Which outcome was assigned to COc1cc(C2=NN(C(C)=O)C(c3ccc(OC(C)=O)cc3OC(C)=O)O2)c(OC(C)=O)c2ccccc12 (configuration not stated) in this test?
stdout: 0 (no)

stdin: Per the records of this test, what outcome belongs to CCN(CC)c1ccc(C(=N)c2ccc(N(CC)CC)cc2)cc1 ?
stdout: 0 (no)

stdin: Which outcome was assigned to Cc1cc(C)c(C(=O)CC(=O)c2cccnc2)c(C)c1 in this test?
stdout: 0 (no)

stdin: Field: outcome | Entry: COc1cc(NC(=O)c2cc(O)c(CC=C(C)C)c(O)c2)cc2c1O[C@]1(C)CC[C@@H](O)C(C)(C)[C@H]1C2
stdout: 0 (no)

stdin: Name the outcome recorded for NC(N)=NCCCn1c2c(c3ccccc3c1=O)C(=O)c1ccccc1-2 in the assay.
stdout: 0 (no)

stdin: Assay outcome for COC(=O)Nc1nc2ccc(Oc3ccc(NC(=O)Nc4ccccc4)cc3)cc2[nH]1 : what was it?
stdout: 1 (yes)

stdin: Kindly provide the recorded test outcome for the following compound: NCCCC[C@@H]1NC(=O)[C@H]2CCCN2C(=O)[C@H](Cc2ccccc2)NC(=O)[C@H](Cc2ccccc2)CNC1=O
stdout: 0 (no)

stdin: Hi team, can someone confirm the assay call for Cc1ccc(C(=NN=C(N)N)c2ccc(C)cc2)cc1 ?
stdout: 0 (no)

stdin: # lookup: test call for COc1cc(OC)c(/C=C/C(=O)c2c(OC)cccc2OC)c(OC)c1
stdout: 1 (yes)

###

Give TGI for every item shown.
- System: OVCAR-3 ovarian
- Protocol: NCI tumour cell line growth inhibition, 48 h

stdin: // query TGI value for entry N.N.N.N.N.O=C([O-])c1nn[n-]n1.[Cl-].[Co+3]
stdout: > 100 µM

stdin: What TGI value was documented for this compound, CC[C@@]1(O)C(=O)OCc2c1cc1n(c2=O)Cc2c-1nc1ccccc1c2/C=N\NC(=O)C[n+]1ccccc1 ?
stdout: > 79.4 µM

stdin: Fill in the blank: the reported TGI of Cc1nc2ccccc2c(=O)n1NC(=O)c1ccccn1 is ____.
stdout: > 100 µM

###

- Test system: OVCAR-5 ovarian
- Protocol: NCI tumour cell line growth inhibition, 48 h
I'd appreciate it if you could supply TGI values for the items below.

stdin: Consider the compound Cc1nc(N)c(N2CCN(S(N)(=O)=O)CC2)c(=O)[nH]1 and give its measured TGI.
stdout: > 100 µM

stdin: Need TGI of O=c1[nH]c(=O)n(C/C=C/CO)nc1Br , thanks.
stdout: > 100 µM

stdin: # lookup: TGI of Nc1cc(Cl)cc2cc(Cl)cnc12
stdout: > 100 µM

stdin: Need TGI, item Cc1cccc(N/C(=C(/C(Cl)=C(Cl)Cl)[N+](=O)[O-])n2nnc3ccccc32)c1
stdout: 38 µM

stdin: I have this compound here, CC1=NN(c2cccc(S(=O)(=O)O)c2)C2(C1)C(Cl)C(=O)N2c1nc2ccccc2s1 (configuration not stated) , and I need its recorded TGI.
stdout: 28.1 µM

stdin: Item under review: CC1(C)C2CC(O)C1(C)CC2=O (configuration not stated) . Reported TGI?
stdout: > 100 µM

stdin: Name the reported TGI value associated with the compound COc1cc(C2=NN(C(C)=O)C(c3ccc(OC(C)=O)cc3OC(C)=O)O2)c(OC(C)=O)c2ccccc12 (configuration not stated)
stdout: > 66.8 µM

stdin: Dear colleague, I am looking for the recorded TGI of the following compound: Cn1c(-c2cccs2)cc(-c2cccs2)c1-c1cccs1
stdout: > 100 µM

stdin: Fill blank: measured TGI of the compound CC(C)C[C@H]1[C@@H](OCc2ccccc2)COS(=O)(=O)N1[C@H](C)c1ccccc1 is ____.
stdout: > 100 µM

stdin: I am curious: what TGI value has been reported for CCC#CC[C@H]1C/C=C2/C(=O)C=C[C@@H]2C/C=C\CCCC(=O)O1 ?
stdout: 6.92 µM

stdin: Quick one: TGI for O=C1c2c(Br)sc(Br)c2C(NC(=O)C(F)(F)F)C1O (configuration not stated) ?
stdout: 39.6 µM

stdin: // returns reported TGI for input NCc1ccc(-c2ccc(CN)s2)s1
stdout: > 100 µM

stdin: Which TGI value belongs to NC(N)=NCCCn1c2c(c3ccccc3c1=O)C(=O)c1ccccc1-2 ?
stdout: 94.6 µM

stdin: Consider the compound shown here: CCOC(=O)CC[C@H](N)C(=O)N[C@@H](Cc1ccc(N(CCCl)CCCl)cc1)C(=O)OCC What is its recorded TGI?
stdout: 6.78 µM

stdin: // returns reported TGI for input O=C(CC(O)(C(F)(F)F)C(F)(F)F)C(c1ccccc1)C(O)(C(F)(F)F)C(F)(F)F (configuration not stated)
stdout: > 100 µM

stdin: Request the reported TGI associated with COc1cc(NC(=O)c2cc(O)c(CC=C(C)C)c(O)c2)cc2c1O[C@]1(C)CC[C@@H](O)C(C)(C)[C@H]1C2
stdout: 66.7 µM

stdin: # get_value(readout='TGI', item= COc1cc2c(cc1C)NC(=O)/C2=C/c1cccnc1 )
stdout: 27.9 µM

stdin: Given the entry O=C(N/N=C/c1cccc(O)c1O)c1ccccc1 , report its measured TGI.
stdout: > 100 µM

stdin: Quick one: TGI for O=[N+]([O-])/C(C(Cl)=C(Cl)Cl)=C1\Nc2ccc([N+](=O)[O-])cc2N1 ?
stdout: > 100 µM

stdin: Recorded TGI of COc1ccc2c(c1)CCC1C3(CCCC21C)OCCO3 (configuration not stated) , please.
stdout: > 100 µM

stdin: Could you tell me which TGI is on file for C=CCCCCCCCCC(=O)NS(=O)(=O)c1ccccc1 ?
stdout: > 100 µM

stdin: Recorded TGI for C=CC(C)(C)n1cc(C2=C3OC(=O)C(c4cn(C(C)(C)C=C)c5ccccc45)=C3OC2=O)c2ccccc21 , please?
stdout: > 100 µM

stdin: For CC12Nc3c(Cl)cc(Cl)cc3N1C(=O)c1ccccc12 (configuration not stated) , what is its reported TGI?
stdout: > 100 µM

stdin: Data request, read-out TGI, for CCOC(=O)CN=c1nc(SC)sc2c(C(=O)OCC)nc(Sc3ccccc3)n12
stdout: > 100 µM

stdin: Consider the compound shown here: CN(C)CCNC(=O)c1cccc(C(=O)Nc2ccccc2)c1[N+](=O)[O-] What is its recorded TGI?
stdout: > 100 µM

stdin: Item under review: C[N+](C)(C)CC1CCCC(C[N+](C)(C)C)C1=O (configuration not stated) . Reported TGI?
stdout: 7.73 µM

stdin: Look up TGI: [O-][n+]1nc(N2CCOCC2)nc2ccccc21
stdout: > 100 µM

stdin: Sample Cc1ccc2nc3c(C(=O)NCCN(C)C)cccc3nc2c1 — what was its TGI?
stdout: 29.8 µM

stdin: Request the reported TGI associated with CCC[CH2][Sn]1([CH2]CCC)[O]C(=O)C(C(C)C)N=Cc2ccccc2[O]1 (configuration not stated)
stdout: 2.98 µM

stdin: Could you share which TGI value was measured for CN(C)c1ccc(N)cc1 ?
stdout: 42.6 µM

stdin: Requested read-out: TGI. Entry: CC(C)N(C(=O)C12CC3CC(CC(C3)C1)C2)C(C)C
stdout: > 50 µM

stdin: What does the record list as TGI for Cc1ccc(C(=NN=C(N)N)c2ccc(C)cc2)cc1 ?
stdout: 13.8 µM

stdin: Give its TGI value. Item: CCN(CCCl)c1cc(CN(C)C)cc(NC(=O)c2ccc(C(=O)Nc3cc(CN(C)C)cc(N(CC)CCCl)c3)cc2)c1
stdout: 0.966 µM

stdin: Report TGI for COc1ccc(CNc2ccn(C3OC(CO)C(O)C3O)c(=O)n2)cc1 (configuration not stated) please.
stdout: > 100 µM

stdin: Which TGI value belongs to COc1cc2oc(-c3ccc(O)cc3)cc(=O)c2c(OC)c1OC ?
stdout: > 100 µM

stdin: Bench note: what TGI did Cc1sc2nc(N(C)C)oc(=O)c2c1C show?
stdout: > 100 µM

stdin: What value of measured TGI is listed for Cc1cccc(NC(=O)C(=O)Cc2nc3ccccc3[nH]c2=O)c1C ?
stdout: > 100 µM
